biological target: CFTR-mediated chloride transport in human intestinal epithelial enteroid cells (Homo sapiens); experiment: Membrane potential dye, Enteroid Assay A; assay type: cell-based; conditions: % of chloride transport of triple combination control (3 μM N-[(6-amino-2-pyridyl)sulfonyl]-6-(3-fluoro-5-isobutoxy-phenyl)-2-[(4S)-2,2,4-trimethylpyrrolidin-1-yl]pyridine-3-carboxamide, 3 μM tezacaftor, 300 nM acute ivacaftor)
Quantity measured: Ent. A Max Activity (%)

Reference set, count: 6
COCCN1C[C@@H]2C[C@H](C1)C(=O)Nc1cccc(c1)S(=O)(=O)Nc1nc(cc(-c3c(C)cccc3C)n1)O2
+++ (+++ is >60%)
Cc1cccc(C)c1-c1cc2nc(n1)NS(=O)(=O)c1cccc(c1)NC(=O)[C@@H]1C[C@@H](CN(C(=O)OCC(C)(C)C)C1)O2
+++ (+++ is >60%)
Cc1cccc(C)c1-c1cc2nc(n1)NS(=O)(=O)c1cccc(c1)NC(=O)[C@@H]1C[C@H](O2)C(=O)N(CCC(C)(C)C)C1 [Compound 90]
++ (++ is 30-60%)
Cc1cccc(C)c1-c1cc2nc(n1)NS(=O)(=O)c1cccc(c1)NC(=O)[C@@H]1C[C@@H](CN(CC(C)C(F)(F)F)C1)O2 (some centres unmarked)
+++ (+++ is >60%)
CCCCCCN1C[C@@H]2C[C@H](C1)C(=O)Nc1cccc(c1)S(=O)(=O)Nc1nc(cc(-c3c(C)cccc3C)n1)O2
+++ (+++ is >60%)
Cc1cccc(C)c1-c1cc2nc(n1)NS(=O)(=O)c1cccc(c1)NC(=O)C1CC(O2)C(=O)N(CCC(C)(C)C)C1 (centres unmarked) [Compound 92]
+ (+ is <30%)

Requested field: Ent. A Max Activity (%). Item: Cc1cccc(C)c1-c1cc2nc(n1)NS(=O)(=O)c1cccc(c1)NC(=O)[C@H]1C[C@H](CN(C(=O)OC(C)(C)C)C1)O2 (single isomer, unassigned)
+ (+ is <30%)

# repeat for Cc1cccc(C)c1-c1cc2nc(n1)NS(=O)(=O)c1cccc(c1)NC(=O)[C@H]1CNC[C@@H](C1)O2
+ (+ is <30%)

* * *

molecular target: CFTR-mediated chloride transport in human intestinal epithelial enteroid cells (Homo sapiens, UniProt P13569); assay: Membrane potential dye, Enteroid Assay A; format: cell-based; settings: % of chloride transport of triple combination control (3 μM N-[(6-amino-2-pyridyl)sulfonyl]-6-(3-fluoro-5-isobutoxy-phenyl)-2-[(4S)-2,2,4-trimethylpyrrolidin-1-yl]pyridine-3-carboxamide, 3 μM tezacaftor, 300 nM acute ivacaftor)
Sequence (P13569 with tags, fused parts or gaps DEL508-508): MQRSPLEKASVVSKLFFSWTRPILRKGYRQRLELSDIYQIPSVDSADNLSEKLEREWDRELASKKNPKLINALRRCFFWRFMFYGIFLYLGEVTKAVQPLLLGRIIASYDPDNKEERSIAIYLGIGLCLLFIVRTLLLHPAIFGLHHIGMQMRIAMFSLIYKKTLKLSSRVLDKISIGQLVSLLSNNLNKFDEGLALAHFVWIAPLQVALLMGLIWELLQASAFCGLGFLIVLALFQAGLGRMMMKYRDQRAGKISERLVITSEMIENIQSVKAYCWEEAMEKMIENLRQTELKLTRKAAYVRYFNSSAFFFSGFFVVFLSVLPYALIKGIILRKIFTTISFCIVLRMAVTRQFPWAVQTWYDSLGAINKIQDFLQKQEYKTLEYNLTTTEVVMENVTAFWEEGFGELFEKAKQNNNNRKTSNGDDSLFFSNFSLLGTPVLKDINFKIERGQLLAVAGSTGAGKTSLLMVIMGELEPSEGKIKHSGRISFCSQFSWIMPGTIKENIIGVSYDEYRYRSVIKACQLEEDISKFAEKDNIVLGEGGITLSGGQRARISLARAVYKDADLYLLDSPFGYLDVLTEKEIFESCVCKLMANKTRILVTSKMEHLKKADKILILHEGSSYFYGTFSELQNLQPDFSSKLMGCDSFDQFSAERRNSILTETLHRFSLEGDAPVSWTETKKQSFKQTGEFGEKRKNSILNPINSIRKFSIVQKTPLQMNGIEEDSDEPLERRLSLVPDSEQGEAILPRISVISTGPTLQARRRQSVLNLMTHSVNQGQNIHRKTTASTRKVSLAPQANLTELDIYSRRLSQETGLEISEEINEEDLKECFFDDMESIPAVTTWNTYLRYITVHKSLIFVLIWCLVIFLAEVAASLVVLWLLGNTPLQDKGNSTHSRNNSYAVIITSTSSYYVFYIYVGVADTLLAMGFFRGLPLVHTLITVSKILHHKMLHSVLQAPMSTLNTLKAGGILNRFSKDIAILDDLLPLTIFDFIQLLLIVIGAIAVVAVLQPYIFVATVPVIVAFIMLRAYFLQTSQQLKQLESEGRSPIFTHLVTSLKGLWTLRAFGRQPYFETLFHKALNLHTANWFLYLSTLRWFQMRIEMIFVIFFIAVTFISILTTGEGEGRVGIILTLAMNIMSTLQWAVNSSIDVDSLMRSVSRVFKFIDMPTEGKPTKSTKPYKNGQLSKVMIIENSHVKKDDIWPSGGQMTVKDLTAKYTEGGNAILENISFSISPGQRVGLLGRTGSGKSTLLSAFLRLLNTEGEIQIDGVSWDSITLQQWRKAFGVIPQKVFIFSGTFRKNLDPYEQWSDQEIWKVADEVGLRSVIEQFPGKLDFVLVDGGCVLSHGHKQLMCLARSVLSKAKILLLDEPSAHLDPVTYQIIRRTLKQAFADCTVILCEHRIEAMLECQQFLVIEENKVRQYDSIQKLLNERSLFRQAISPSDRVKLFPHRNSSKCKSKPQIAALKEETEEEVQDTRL
Quantity measured: Ent. A Max Activity (%)

Cc1cccc(C)c1-c1cc2nc(n1)NS(=O)(=O)c1cccc(c1)NC(=O)C1CC(O2)C(=O)N(CCC(C)(C)C)C1 (stereo not drawn) [Compound 93]
++ (++ is 30-60%)
Cc1cccc(C)c1-c1cc2nc(n1)NS(=O)(=O)c1cncc(c1)NC(=O)C1CC(CN(C(=O)OC(C)(C)C)C1)O2 (racemic)
+ (+ is <30%)
Cc1ccc2cc1C(=O)Nc1cccc(c1)S(=O)(=O)Nc1nc(cc(-c3c(C)cccc3C)n1)O2
++ (++ is 30-60%)
Cc1cccc(C)c1-c1cc2nc(n1)NS(=O)(=O)c1cccc(c1)NC(=O)[C@H]1CCC[C@H](C1)O2 (single isomer, unassigned) [Compound 69]
++ (++ is 30-60%)
CCN1C[C@@H]2C[C@H](C1)C(=O)Nc1cccc(c1)S(=O)(=O)Nc1nc(cc(-c3c(C)cccc3C)n1)O2
+++ (+++ is >60%)

Requested field: Ent. A Max Activity (%). Item: CCCCN1C[C@@H]2C[C@H](C1)C(=O)Nc1cccc(c1)S(=O)(=O)Nc1nc(cc(-c3c(C)cccc3C)n1)O2
++ (++ is 30-60%)

# repeat for Cc1cccc(C)c1-c1cc2nc(n1)NS(=O)(=O)c1cccc(c1)NC(=O)[C@@H]1C[C@@H](CN(C(=O)C(C)(C)C)C1)O2
+++ (+++ is >60%)

# repeat for Cc1cccc(C)c1-c1cc2nc(n1)NS(=O)(=O)c1cccc(n1)NC(=O)C1CC(CN(C(=O)OC(C)(C)C)C1)O2 (stereo not drawn) [Compound 18]
+++ (+++ is >60%)

# repeat for Cc1cccc(C)c1-c1cc2nc(n1)NS(=O)(=O)c1cccc(c1)NC(=O)[C@@H]1C[C@@H](CN1C(=O)OC(C)(C)C)O2
+ (+ is <30%)

* * *

target: CFTR-mediated chloride transport in human intestinal epithelial enteroid cells (Homo sapiens, UniProt P13569); assay: Membrane potential dye, Enteroid Assay A; type: cell-based; conditions: enteroid cells, 18-24 hours incubation, acute 10 μM forskolin and 300 nM ivacaftor; read-out: Ent. A EC50
Quantity measured: EC50

Reference set, count: 6
Cc1cccc(C)c1-c1cc2cc(n1)NS(=O)(=O)c1cccc(c1)NC(=O)c1cccc(c1)O2
3 to 30 µM
Cc1cccc(C)c1-c1cc2nc(n1)NS(=O)(=O)c1cccc(c1)NC(=O)[C@@H]1C[C@@H](CN(C(=O)CC(C)(C)C)C1)O2
1 to 3 µM
CCCCN1C[C@@H]2C[C@H](C1)C(=O)Nc1cccc(c1)S(=O)(=O)Nc1nc(cc(-c3c(C)cccc3C)n1)O2
< 1 µM
COC(=O)N1C[C@@H]2C[C@H](C1)C(=O)Nc1cccc(c1)S(=O)(=O)Nc1nc(cc(-c3c(C)cccc3C)n1)O2
1 to 3 µM
Cc1cccc(C)c1-c1cc2nc(n1)NS(=O)(=O)c1cccc(c1)NC(=O)[C@@H]1C[C@H](O2)C(=O)N(CCC(C)(C)C)C1 [Compound 91]
3 to 30 µM
CC(C)c1ccccc1-c1cc2nc(n1)NS(=O)(=O)c1cccc(c1)NC(=O)c1cccc(c1)O2
3 to 30 µM

Requested field: EC50. Item: Cc1cccc(C)c1-c1cc2nc(n1)NS(=O)(=O)c1cccc(c1)NC(=O)C1CNCC(C1)O2 (stereo not shown) [Compound 52]
3 to 30 µM

* * *

molecular target: CFTR-mediated chloride transport in human intestinal epithelial enteroid cells (Homo sapiens, UniProt P13569); assay: Membrane potential dye, Enteroid Assay A; format: cell-based; conditions: % of chloride transport of triple combination control (3 μM N-[(6-amino-2-pyridyl)sulfonyl]-6-(3-fluoro-5-isobutoxy-phenyl)-2-[(4S)-2,2,4-trimethylpyrrolidin-1-yl]pyridine-3-carboxamide, 3 μM tezacaftor, 300 nM acute ivacaftor)
Quantity measured: Ent. A Max Activity (%)

Cc1cccc(C)c1-c1cc2nc(n1)NS(=O)(=O)c1cccc(c1)NC(=O)[C@@H]1CNC[C@H](C1)O2 [Compound 48]
++ (++ is 30-60%)
Cc1cccc(C)c1-c1cc2nc(n1)NS(=O)(=O)c1cccc(c1)NC(=O)CCc1cccc(c1)O2 [Compound 108]
+++ (+++ is >60%)
Cc1cccc(C)c1-c1cc2nc(n1)NS(=O)(=O)c1cccc(c1)NC(=O)[C@@H]1C[C@@H](CN(Cc3ccccc3)C1)O2 [Compound 9]
+++ (+++ is >60%)
Cc1cc2cc(c1)C(=O)Nc1cccc(c1)S(=O)(=O)Nc1nc(cc(-c3c(C)cccc3C)n1)O2 [Compound 110]
++ (++ is 30-60%)
Cc1cccc(C)c1-c1cc2nc(n1)NS(=O)(=O)c1cccc(c1)NC(=O)[C@@H]1C[C@@H](CN(CC(C3CC3)C3CC3)C1)O2 [Compound 24]
++ (++ is 30-60%)
Cc1cccc(C)c1-c1cc2nc(n1)NS(=O)(=O)c1cccc(n1)NC(=O)[C@@H]1C[C@@H](CN(C(=O)OC(C)(C)C)C1)O2 (single isomer, unassigned) [Compound 16]
+++ (+++ is >60%)
Cc1cccc(C)c1-c1cc2nc(n1)NS(=O)(=O)c1cccc(c1)NC(=O)c1cc(Cl)cc(c1)O2 [Compound 118]
+++ (+++ is >60%)

Please find the next compound below.
Requested field: Ent. A Max Activity (%). Item: CC(C)c1ccccc1-c1cc2nc(n1)NS(=O)(=O)c1cccc(c1)NC(=O)c1cccc(c1)O2 [Compound 81]
++ (++ is 30-60%)
